Target: Adrenergic receptor alpha-1 (Rattus norvegicus, UniProt P15823+P23944+P43140)
Sequence (P15823 whole entry): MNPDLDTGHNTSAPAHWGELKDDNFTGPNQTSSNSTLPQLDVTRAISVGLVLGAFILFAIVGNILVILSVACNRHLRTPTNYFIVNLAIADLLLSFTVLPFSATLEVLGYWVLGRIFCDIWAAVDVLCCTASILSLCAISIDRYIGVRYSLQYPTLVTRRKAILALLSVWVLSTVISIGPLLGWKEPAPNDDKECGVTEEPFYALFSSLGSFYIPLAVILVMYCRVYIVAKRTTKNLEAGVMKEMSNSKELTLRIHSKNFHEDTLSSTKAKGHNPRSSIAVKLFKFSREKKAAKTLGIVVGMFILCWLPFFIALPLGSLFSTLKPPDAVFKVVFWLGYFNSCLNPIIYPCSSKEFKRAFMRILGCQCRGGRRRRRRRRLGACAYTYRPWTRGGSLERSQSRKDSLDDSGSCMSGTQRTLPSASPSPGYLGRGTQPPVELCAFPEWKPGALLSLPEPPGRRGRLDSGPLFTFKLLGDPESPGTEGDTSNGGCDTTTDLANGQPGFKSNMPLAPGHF
Sequence (P23944 whole entry): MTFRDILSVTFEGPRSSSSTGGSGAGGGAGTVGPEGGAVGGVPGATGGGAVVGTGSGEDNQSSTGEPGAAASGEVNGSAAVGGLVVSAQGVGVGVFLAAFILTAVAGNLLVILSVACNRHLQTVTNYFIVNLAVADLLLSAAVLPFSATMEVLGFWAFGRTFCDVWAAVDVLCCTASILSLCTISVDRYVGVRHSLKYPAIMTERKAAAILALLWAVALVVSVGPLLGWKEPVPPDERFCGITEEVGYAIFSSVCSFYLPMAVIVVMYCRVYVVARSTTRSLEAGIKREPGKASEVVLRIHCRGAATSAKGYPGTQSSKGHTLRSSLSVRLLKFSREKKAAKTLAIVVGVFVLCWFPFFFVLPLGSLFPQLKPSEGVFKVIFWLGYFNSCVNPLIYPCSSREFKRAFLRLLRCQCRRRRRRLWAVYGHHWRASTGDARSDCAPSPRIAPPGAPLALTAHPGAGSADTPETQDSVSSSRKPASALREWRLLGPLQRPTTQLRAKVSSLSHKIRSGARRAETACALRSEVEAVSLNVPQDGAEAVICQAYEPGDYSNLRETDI
Sequence (P43140 whole entry): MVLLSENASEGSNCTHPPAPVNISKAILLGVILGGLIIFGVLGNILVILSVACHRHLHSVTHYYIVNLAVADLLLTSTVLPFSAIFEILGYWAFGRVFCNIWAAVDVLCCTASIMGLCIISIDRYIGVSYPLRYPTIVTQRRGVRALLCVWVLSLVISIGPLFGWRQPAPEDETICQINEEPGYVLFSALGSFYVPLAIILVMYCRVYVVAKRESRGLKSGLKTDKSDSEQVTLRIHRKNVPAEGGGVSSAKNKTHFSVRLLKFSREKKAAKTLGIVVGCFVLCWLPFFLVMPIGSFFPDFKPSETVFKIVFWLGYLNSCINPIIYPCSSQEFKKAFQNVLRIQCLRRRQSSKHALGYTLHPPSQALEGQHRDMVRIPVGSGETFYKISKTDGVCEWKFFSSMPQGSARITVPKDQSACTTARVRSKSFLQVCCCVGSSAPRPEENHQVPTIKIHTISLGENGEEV
Experiment: The compound was evaluated for the inhibition of [3H]prazosin binding to alpha-1 adrenergic receptor from rat liver
Measured attribute: IC50 (µM)
A number alone suffices; assume µM.

Given Br.Oc1ccc2c(c1O)CCCCC2C1=NCCN1 (centres undefined) , state its recorded IC50. 56

Given Br.Oc1ccc2c(c1O)CC2C1=NCCN1 (centres undefined) , state its recorded IC50. 4.4

Given Br.Oc1ccc2c(c1O)CCCC2C1=NCCN1 (centres undefined) , state its recorded IC50. 2.5

Given Br.Oc1ccc2c(c1O)CCC2C1=NCCN1 (centres undefined) , state its recorded IC50. 1.57

Hello, the source for this data is ChEMBL document CHEMBL1123424, in case you need it.
